System: Xanthomonas oryzae
Experiment: Antibacterial activity against Xanthomonas oryzae at 30 ug/ml after 24 hrs by agar well diffusion method
Assay type: functional
Condition Label: read-out: DIZ
Numbered stars: 1 amine (or outer) side, 2 acyl side, 3 side chain; on linkers, the order of the positions; unused ones are H or OH. Peptide text beside a SMILES is read from it. * marks the point of attachment. Piperazinyl(4-(2,3-Cl2Ph)) = Clc1cccc(N2CCN(*)CC2)c1Cl; Thiocarbamoyl(N-4-ClPh) = S=C(Nc1ccc(Cl)cc1)*; Thiocarbamoyl(4-MeOPh) = COc1ccc(NC(=S)*)cc1; Thiocarbamoyl(N-2-FPh) = Fc1ccccc1NC(=S)*; NH(4-MeO-phenyl) = COc1ccc(N*)cc1; NH(4-Cl-phenyl) = Clc1ccc(N*)cc1; X1 = Fc1ccc2c(C3CCN(*)CC3)noc2c1; NH(2-F-phenyl) = Fc1ccccc1N*; CO = O=C([*:1])[*:2]

Compound | zone of inhibition at 30 µg/mL (mm)
O=C([C@H](Cc1c[nH]c2ccccc12)NC(=S)Nc1ccccc1F)N1CCN(c2cccc(Cl)c2Cl)CC1 | 10
O=C(CNC(=O)Nc1ccccc1F)NCC(=O)N[C@@H](Cc1ccccc1)C(=O)N1CCC[C@H]1C(=O)N1CCC(c2noc3cc(F)ccc23)CC1 ({NH(2-F-phenyl)-CO}-GGFP-X1) | 29
O=C(CNC(=O)Nc1ccc(Cl)cc1)NCC(=O)N[C@@H](Cc1ccccc1)C(=O)N1CCC[C@H]1C(=O)N1CCC(c2noc3cc(F)ccc23)CC1 ({NH(4-Cl-phenyl)-CO}-GGFP-X1) | 25
COc1ccc(NC(=O)NCC(=O)N[C@@H](Cc2ccccc2)C(=O)NCC(=O)N[C@@H](Cc2ccccc2)C(=O)N2CCC[C@H]2C(=O)N2CCC(c3noc4cc(F)ccc34)CC2)cc1 ({NH(4-MeO-phenyl)-CO}-GFGFP-X1) | 30
CC[C@H](C)[C@H](NC(=O)CNC(=O)CNC(=O)Nc1ccc(OC)cc1)C(=O)N1CCC[C@H]1C(=O)N1CCC(c2noc3cc(F)ccc23)CC1 ({NH(4-MeO-phenyl)-CO}-GGIP-X1) | 17
COc1ccc(NC(=S)NCC(=O)N[C@H](C(=O)NCC(=O)N[C@H](C(=O)N2CCC[C@H]2C(=O)N2CCN(c3cccc(Cl)c3Cl)CC2)C(C)C)C(C)C)cc1 ({Thiocarbamoyl(4-MeOPh)}-GVGVP-{Piperazinyl(4-(2,3-Cl2Ph))}) | 26
COc1ccc(NC(=S)NCC(=O)N[C@H](C(=O)NCC(=O)N[C@H](C(=O)N2CCC[C@H]2C(=O)N2CCC(c3noc4cc(F)ccc34)CC2)C(C)C)C(C)C)cc1 ({Thiocarbamoyl(4-MeOPh)}-GVGVP-X1) | 28
O=C(CNC(=S)Nc1ccc(Cl)cc1)N[C@@H](Cc1ccccc1)C(=O)NCC(=O)N[C@@H](Cc1ccccc1)C(=O)N1CCC[C@H]1C(=O)N1CCC(c2noc3cc(F)ccc23)CC1 ({Thiocarbamoyl(N-4-ClPh)}-GFGFP-X1) | 36
CC[C@H](C)[C@H](NC(=O)CNC(=O)CNC(=O)Nc1ccc(Cl)cc1)C(=O)N1CCC[C@H]1C(=O)N1CCC(c2noc3cc(F)ccc23)CC1 ({NH(4-Cl-phenyl)-CO}-GGIP-X1) | 22
CC(C)[C@H](NC(=O)CNC(=O)Nc1ccc(Cl)cc1)C(=O)NCC(=O)N[C@H](C(=O)N1CCC[C@H]1C(=O)N1CCC(c2noc3cc(F)ccc23)CC1)C(C)C ({NH(4-Cl-phenyl)-CO}-GVGVP-X1) | 26
O=C(CNC(=S)Nc1ccccc1F)N[C@@H](Cc1ccccc1)C(=O)NCC(=O)N[C@@H](Cc1ccccc1)C(=O)N1CCC[C@H]1C(=O)N1CCC(c2noc3cc(F)ccc23)CC1 ({Thiocarbamoyl(N-2-FPh)}-GFGFP-X1) | 41
CC[C@H](C)[C@H](NC(=O)CNC(=O)CNC(=S)Nc1ccc(OC)cc1)C(=O)N1CCC[C@H]1C(=O)N1CCC(c2noc3cc(F)ccc23)CC1 ({Thiocarbamoyl(4-MeOPh)}-GGIP-X1) | 20
CC(C)[C@H](NC(=O)CNC(=S)Nc1ccccc1F)C(=O)NCC(=O)N[C@H](C(=O)N1CCC[C@H]1C(=O)N1CCC(c2noc3cc(F)ccc23)CC1)C(C)C ({Thiocarbamoyl(N-2-FPh)}-GVGVP-X1) | 36
O=C(Nc1ccccc1F)N[C@@H](Cc1c[nH]c2ccccc12)C(=O)N1CCN(c2cccc(Cl)c2Cl)CC1 | 9
CC[C@H](C)[C@H](NC(=O)CNC(=O)CNC(=O)Nc1ccccc1F)C(=O)N1CCC[C@H]1C(=O)N1CCN(c2cccc(Cl)c2Cl)CC1 ({NH(2-F-phenyl)-CO}-GGIP-{Piperazinyl(4-(2,3-Cl2Ph))}) | 26
O=C(CNC(=O)Nc1ccc(Cl)cc1)N[C@@H](Cc1ccccc1)C(=O)NCC(=O)N[C@@H](Cc1ccccc1)C(=O)N1CCC[C@H]1C(=O)N1CCC(c2noc3cc(F)ccc23)CC1 ({NH(4-Cl-phenyl)-CO}-GFGFP-X1) | 35
O=C(CNC(=O)Nc1ccc(Cl)cc1)NCC(=O)N[C@@H](Cc1ccccc1)C(=O)N1CCC[C@H]1C(=O)N1CCN(c2cccc(Cl)c2Cl)CC1 ({NH(4-Cl-phenyl)-CO}-GGFP-{Piperazinyl(4-(2,3-Cl2Ph))}) | 24
COc1ccc(NC(=S)NCC(=O)NCC(=O)N[C@@H](Cc2ccccc2)C(=O)N2CCC[C@H]2C(=O)N2CCN(c3cccc(Cl)c3Cl)CC2)cc1 ({Thiocarbamoyl(4-MeOPh)}-GGFP-{Piperazinyl(4-(2,3-Cl2Ph))}) | 21
O=C(Nc1ccccc1F)N[C@@H](Cc1c[nH]c2ccccc12)C(=O)N1CCC(c2noc3cc(F)ccc23)CC1 | 11
CC(C)[C@H](NC(=O)CNC(=O)Nc1ccccc1F)C(=O)NCC(=O)N[C@H](C(=O)N1CCC[C@H]1C(=O)N1CCN(c2cccc(Cl)c2Cl)CC1)C(C)C ({NH(2-F-phenyl)-CO}-GVGVP-{Piperazinyl(4-(2,3-Cl2Ph))}) | 34
